Test system: HepG2
Test: Cytotoxicity against Homo sapiens (human) HepG2 cells assessed as growth inhibition at 10 uM after 48 hr by SRB assay
Format: functional
Details: HepG2, 48 h, read-out: GI
Entries and their inhibition of growth at 10 µM values follow.
The figure you give is taken to be in %; do not add the unit.

{"compound": "O=C1C2C3c4ccccc4C(c4ccccc43)C2C(=O)N1Cc1ccco1 (stereo not given)", "target of assay": "HepG2", "inhibition of growth at 10 µM [%]": 38}
{"compound": "O=C1C2C3c4ccccc4C(c4ccccc43)C2C(=O)N1CCN1CCCC1 (stereo not given)", "target of assay": "HepG2", "inhibition of growth at 10 µM [%]": 47}
{"compound": "O=C1C2C3c4ccccc4C(c4ccccc43)C2C(=O)N1C1CC1 (stereo not given)", "target of assay": "HepG2", "inhibition of growth at 10 µM [%]": 53}
{"compound": "O=C1C2C3c4ccccc4C(c4ccccc43)C2C(=O)N1CCCN1C(=O)C2C3c4ccccc4C(c4ccccc43)C2C1=O (stereo not given)", "target of assay": "HepG2", "inhibition of growth at 10 µM [%]": 45}
{"compound": "O=C1C2C3c4ccccc4C(c4ccccc43)C2C(=O)N1CC1CCNCC1 (stereo not given)", "target of assay": "HepG2", "inhibition of growth at 10 µM [%]": 32}

## Task Any idea what inhibition of growth at 10 µM came out for O=C1C2C3c4ccccc4C(c4ccccc43)C2C(=O)N1CCCCN1C(=O)C2C3c4ccccc4C(c4ccccc43)C2C1=O (stereo not given) on HepG2?
## Result 25

## Task Entry to check: O=C1C2C3c4ccccc4C(c4ccccc43)C2C(=O)N1Nc1ccccc1 (stereo not given)
## Result 52

## Task Entry to check: O=C1C2C3c4ccccc4C(c4ccccc43)C2C(=O)N1Cc1ccccc1 (stereo not given)
## Result 52

## Task Entry to check: O=C1C2C3c4ccccc4C(c4ccccc43)C2C(=O)N1CC1CCCO1 (stereo not given)
## Result 55

## Task Entry to check: O=C1C2C3c4ccccc4C(c4ccccc43)C2C(=O)N1CCCn1ccnc1 (stereo not given)
## Result 48

====

Tested on: Rattus norvegicus
Test: Anti-inflammatory activity against albino Charles Foster Rattus norvegicus (rat) assessed as inhibition of carrageenan-induced paw edema at 50 mg/kg, po administered 30 min prior to carrageenan injection measured after 1-3 hr by plethysmometer
Assay type: functional
Parameters: scale not given: the % may be the effect or the level left
# strict inequality: Activity < 30% yields class 1, everything else yields class 0

{"molecule": "O=C1C2C3c4ccccc4C(c4ccccc43)C2C(=O)N1CCCN1CCN(CCCN2C(=O)C3C4c5ccccc5C(c5ccccc54)C3C2=O)CC1 (configuration not stated)", "cat": "class 1"}
{"molecule": "O=C1C2C3c4ccccc4C(c4ccccc43)C2C(=O)N1CN1CCOCC1 (configuration not stated)", "cat": "class 0"}
{"molecule": "O=C1C2C3c4ccccc4C(c4ccccc43)C2C(=O)N1CCCN1C(=O)C2C3c4ccccc4C(c4ccccc43)C2C1=O (configuration not stated)", "cat": "class 0"}

## Task Is it true that Activity reported for O=C1C2C3c4ccccc4C(c4ccccc43)C2C(=O)N1Nc1ccccc1 (configuration not stated) is less than 30%?
## Result class 1

## Task Entry to check: O=C1CCCN1CCN1C(=O)C2C3c4ccccc4C(c4ccccc43)C2C1=O (configuration not stated)
## Result class 1

## Task Entry to check: O=C1C2C3c4ccccc4C(c4ccccc43)C2C(=O)N1CCN1CCNCC1 (configuration not stated)
## Result class 0

## Task Entry to check: O=C1C2C3c4ccccc4C(c4ccccc43)C2C(=O)N1Cc1ccccn1 (configuration not stated)
## Result class 1

## Task Entry to check: O=C1C2C3c4ccccc4C(c4ccccc43)C2C(=O)N1CC1CCNCC1 (configuration not stated)
## Result class 0

## Task Entry to check: O=C1C2C3c4ccccc4C(c4ccccc43)C2C(=O)N1Cc1ccco1 (configuration not stated)
## Result class 1

## Task Entry to check: CC1(C)CC(N2C(=O)C3C4c5ccccc5C(c5ccccc54)C3C2=O)CC(C)(C)N1 (configuration not stated)
## Result class 0

## Task Entry to check: O=C1C2C3c4ccccc4C(c4ccccc43)C2C(=O)N1CCN1CCCCC1 (configuration not stated)
## Result class 1

## Task Entry to check: CC(CN1C(=O)C2C3c4ccccc4C(c4ccccc43)C2C1=O)N1C(=O)C2C3c4ccccc4C(c4ccccc43)C2C1=O (configuration not stated)
## Result class 1
